Measured values drawn from patent US10160726B2 for this set.

Tested on: P. aeruginosa NB52023-CDK0006 (gyrA T83I, parC S87L)
EXPERIMENT_DESCRIPTION: microbe, parasite or virus in culture
Type: cell-based
MEASUREMENT_PARAMETERS: Pseudomonas aeruginosa, 20 h, read-out: Antibacterial activity (MIC) NB52023-CDK0006
Structures can show the parent of a compound that is named as a salt.
We label by threshold. Values of MIC strictly beneath 20 µg/mL are Satisfied. Values of 20 µg/mL and up are Not satisfied.

Qu. State whether 20 µg/mL exceeds MIC recorded for `Cc1c(N2CC[C@@H]([C@H](C)N)C2)c(F)cc2c(OCCCc3n[nH]c(=O)o3)cc(=O)n(C3CC3)c12` .
Ans. Not satisfied

Qu. Please do the same for Cc1c(N2CC[C@@H]([C@H](C)N)C2)ccc2c(OCC3CCOCC3)cc(=O)n(C3CC3)c12 [Example 73, TFA salt] as well.
Ans. Not satisfied

Qu. Please do the same for `C#Cc1cc(=O)n(C2CC2)c2c(C)c(N3CC[C@@H]([C@H](C)N)C3)c(F)cc12` as well.
Ans. Satisfied

Qu. Please do the same for Cc1c(N2CC[C@@H]([C@H](C)N)C2)ccc2c(OCCN(C)C)cc(=O)n(C3CC3)c12 [Example 74, TFA salt] as well.
Ans. Satisfied

Qu. Please do the same for Cl.NCc1c(N2CCC(F)(CN)C2)c(F)cc2ccc(=O)n(C3CC3)c12 (centres unmarked) as well.
Ans. Satisfied

====

System: P. aeruginosa NB52023 (efflux deficient K1542, ΔmexX ΔmexB)
EXPERIMENT_DESCRIPTION: microbe, parasite or virus in culture
Type: cell-based
MEASUREMENT_PARAMETERS: Pseudomonas aeruginosa, 20 h, read-out: Antibacterial activity (MIC) NB52023
Structures can show the parent of a compound that is named as a salt.
MEASURED_ATTRIBUTE: MIC (µg/mL)
Could you give me the number in µg/mL? Just the number is fine.

# annotated cases, reported MIC shown
Cc1c(N2CC[C@@H]([C@H](C)N)C2)ccc2ccc(=O)n(C3CC3)c12 [Example 76, trifluoroacetic acid salt]	8
Cc1c(N2CC[C@@H]([C@H](C)N)C2)c(F)cc2c(C(=N)NO)cc(=O)n(C3CC3)c12	4
Cc1c(-c2ccc(N)nc2)ccc2ccc(=O)n(C3CC3)c12	32
Cc1c(F)c(N2CCC(CN)C2)c(C)c2c1ccc(=O)n2C1CC1.O=C(O)C(F)(F)F (stereo not drawn)	8
Cc1c(N2CC[C@@H]([C@H](C)N)C2)c(F)cc2c(-c3n[nH]c(=O)o3)cc(=O)n(C3CC3)c12	8

Qu. Entry `CCOC(=O)/C=C/c1cc(=O)n(C2CC2)c2c(C)c(N3CC[C@@H]([C@H](C)N)C3)c(F)cc12` , system P. aeruginosa NB52023 (efflux deficient K1542, ΔmexX ΔmexB): what MIC was measured?
Ans. 32

Qu. Please do the same for `Cc1c(N2CC[C@@H]([C@H](C)N)C2)c(F)cc2c(OCCCC#N)cc(=O)n(C3CC3)c12` as well.
Ans. 16

Qu. Please do the same for `N#Cc1c(N2CC[C@H](N)C2)c(F)cc2c(CN)cc(=O)n(C3CC3)c12` as well.
Ans. 2
